Consider compounds characterized by their IC50 with PI3Kα (Homo sapiens (Human), UniProt P42336).
Sequence (P42336 other isoform, or with tags, fused parts or gaps): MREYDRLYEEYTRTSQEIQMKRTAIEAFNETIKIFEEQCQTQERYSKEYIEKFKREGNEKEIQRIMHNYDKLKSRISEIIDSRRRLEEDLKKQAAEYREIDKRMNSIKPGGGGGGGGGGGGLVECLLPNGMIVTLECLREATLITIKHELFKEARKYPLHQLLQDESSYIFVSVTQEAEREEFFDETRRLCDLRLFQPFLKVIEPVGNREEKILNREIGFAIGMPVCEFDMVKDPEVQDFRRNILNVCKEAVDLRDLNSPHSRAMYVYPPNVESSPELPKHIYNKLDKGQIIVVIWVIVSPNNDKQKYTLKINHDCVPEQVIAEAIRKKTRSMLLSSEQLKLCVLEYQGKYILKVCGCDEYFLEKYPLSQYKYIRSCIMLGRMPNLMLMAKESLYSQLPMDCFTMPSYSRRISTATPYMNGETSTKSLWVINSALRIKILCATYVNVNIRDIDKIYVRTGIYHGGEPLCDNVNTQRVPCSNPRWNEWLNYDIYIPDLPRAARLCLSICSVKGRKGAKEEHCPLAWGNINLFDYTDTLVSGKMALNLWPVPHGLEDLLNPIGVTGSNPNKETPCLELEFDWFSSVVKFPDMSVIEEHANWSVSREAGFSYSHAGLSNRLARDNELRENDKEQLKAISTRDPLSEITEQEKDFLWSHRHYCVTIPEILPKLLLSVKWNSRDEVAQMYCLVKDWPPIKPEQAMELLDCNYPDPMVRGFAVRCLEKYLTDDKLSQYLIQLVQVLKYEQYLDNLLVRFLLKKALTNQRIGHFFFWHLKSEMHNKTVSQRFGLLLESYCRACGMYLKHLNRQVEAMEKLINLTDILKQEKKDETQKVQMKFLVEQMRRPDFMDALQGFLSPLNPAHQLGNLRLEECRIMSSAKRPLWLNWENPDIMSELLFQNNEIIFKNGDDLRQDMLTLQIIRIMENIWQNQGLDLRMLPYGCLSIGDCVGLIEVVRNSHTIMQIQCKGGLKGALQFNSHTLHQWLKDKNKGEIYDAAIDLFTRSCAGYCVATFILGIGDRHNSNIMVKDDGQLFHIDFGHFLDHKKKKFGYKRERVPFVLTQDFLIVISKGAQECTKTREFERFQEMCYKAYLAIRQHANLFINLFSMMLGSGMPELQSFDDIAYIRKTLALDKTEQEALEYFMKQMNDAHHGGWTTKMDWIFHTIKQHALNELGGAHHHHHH
Dear colleague, please return just the value in nM, with no unit written.

*Q* Please indicate IC50 recorded for Oc1ccccc1-c1nc2c(N3CCOCC3)nc(N3CCOCC3)nc2[nH]1 [Example 38]
*A* 480

*Q* Please indicate IC50 recorded for Cc1cc2c(-c3nc4c(N5CCOCC5)nc(N5CCOCC5)nc4[nH]3)cccc2[nH]1 [Example 31]
*A* 590

*Q* Please indicate IC50 recorded for NCc1cccc(-c2nc3c(N4CCOCC4)nc(N4CCOCC4)nc3[nH]2)c1 [Example 11]
*A* 8140

====

Target: FRAP1/mTOR (Homo sapiens (Human))
Assay: Test 2: mTOR Biochemical Assay (FRAP1/mTOR TR-FRET tracer assay)
Details: mTOR Kinase Tracer 314
measurementLabel: IC50 (nM)
Dear colleague, please return just the value in nM, with no unit written.

*Q* Please indicate IC50 recorded for C[C@@H]1COCCN1c1nc(N2CCOC[C@H]2C)c2nc(-c3ccc4cc[nH]c4c3)[nH]c2n1 [Example 45]
*A* 650

*Q* Please indicate IC50 recorded for c1cc2ncc(-c3nc4c(N5CCOCC5)nc(N5CCOCC5)nc4[nH]3)cc2[nH]1 [Example 13]
*A* 469

*Q* Please indicate IC50 recorded for C[C@H]1COCCN1c1nc(N2CCOCC2)nc2[nH]c(-c3cc(CO)ccc3Cl)nc12 [Example 10]
*A* 1840

*Q* Please indicate IC50 recorded for CC(O)c1cccc(-c2nc3c(N4CCOC[C@@H]4C)nc(N4CCOCC4)nc3[nH]2)c1 (stereo partly shown) [Example 12]
*A* 2020

*Q* Please indicate IC50 recorded for C[C@@H]1COCCN1c1nc(N2CCOCC2)nc2[nH]c(-c3cccc4[nH]ccc34)nc12 [Example 20]
*A* 6

*Q* Please indicate IC50 recorded for C[C@@H]1COCCN1c1nc(N2CCOC[C@H]2C)c2nc(-c3cc(CO)ccc3F)[nH]c2n1 [Example 19]
*A* 134

*Q* Please indicate IC50 recorded for c1cc2ccc(-c3nc4c(N5CCOCC5)nc(N5CCOCC5)nc4[nH]3)cc2[nH]1 [Example 28]
*A* 372

*Q* Please indicate IC50 recorded for COc1ccc(-c2nc3c(N4CCOC[C@@H]4C)nc(N4CCOCC4)nc3[nH]2)cc1C(=O)O [Example 9]
*A* 3200

*Q* Please indicate IC50 recorded for C[C@H]1COCCN1c1nc(N2CCOC[C@@H]2C)c2nc(-c3cccc4[nH]ccc34)[nH]c2n1 [Example 22]
*A* 5

*Q* Please indicate IC50 recorded for Oc1cccc(-c2cc3c(N4CCOCC4)nc(N4CCOCC4)nc3[nH]2)c1 [Example 2]
*A* 40

*Q* Please indicate IC50 recorded for CC1(C)COCCN1c1nc(N2CCOCC2)nc2[nH]c(-c3cccc4[nH]ccc34)nc12 [Example 40]
*A* 350

*Q* Please indicate IC50 recorded for C[C@H]1COCCN1c1nc(N2CCOCC2)c2nc(-c3ccc4cc[nH]c4c3)[nH]c2n1 [Example 49]
*A* 370

*Q* Please indicate IC50 recorded for CC(=O)Nc1cccc(-c2nc3c(N4CCOCC4)nc(N4CCOCC4)nc3[nH]2)c1 [Example 30]
*A* 1450

*Q* Please indicate IC50 recorded for c1cc2ccc(-c3nc4c(N5C[C@@H]6C[C@H]5CO6)nc(N5CCOCC5)nc4[nH]3)cc2[nH]1 [Example 48]
*A* 1010

*Q* Please indicate IC50 recorded for C[C@H]1COCCN1c1nc(N2CCOC[C@@H]2C)c2nc(-c3ccnc4[nH]ccc34)[nH]c2n1 [Example 3]
*A* 510

*Q* Please indicate IC50 recorded for C[C@H]1COCCN1c1nc(N2CCOCC2)nc2[nH]c(-c3ccc4cc[nH]c4c3)nc12 [Example 24]
*A* 85

*Q* Please indicate IC50 recorded for c1cc(-c2nc3c(N4C[C@@H]5C[C@H]4CO5)nc(N4CCOCC4)nc3[nH]2)c2cc[nH]c2c1 [Example 50]
*A* 1200

*Q* Please indicate IC50 recorded for C[C@@H]1COCCN1c1nc(N2CCOCC2)nc2[nH]c(-c3ccc4cc[nH]c4c3)nc12 [Example 21]
*A* 237

*Q* Please indicate IC50 recorded for C[C@@H]1COCCN1c1nc(N2CCOC[C@@H]2C)c2nc(-c3cccc4[nH]ccc34)[nH]c2n1 [Example 18]
*A* 46

*Q* Please indicate IC50 recorded for COC1CCN(c2nc(N3CCOCC3)c3nc(-c4cccc5[nH]ccc45)[nH]c3n2)CC1 [Example 25]
*A* 172

*Q* Please indicate IC50 recorded for c1cc(-c2nc3c(N4CCOCC4)nc(N4CCOCC4)nc3[nH]2)c2cc[nH]c2c1 [Example 26]
*A* 8

*Q* Please indicate IC50 recorded for c1cc(-c2cc3c(N4CCOCC4)nc(N4CCOCC4)nc3[nH]2)c2cc[nH]c2c1 [Example 56]
*A* 2390

*Q* Please indicate IC50 recorded for C[C@H]1COCCN1c1nc(N2CCOC[C@@H]2C)c2nc(-c3ccc4[nH]c(=O)[nH]c4c3)[nH]c2n1 [Example 6]
*A* 30

*Q* Please indicate IC50 recorded for C[C@H]1COCCN1c1nc(N2CC3CCC(C2)O3)nc2[nH]c(-c3cccc4[nH]ccc34)nc12 [Example 52]
*A* 50

*Q* Please indicate IC50 recorded for Nc1cccc(-c2nc3c(N4CCOCC4)nc(N4CCOCC4)nc3[nH]2)c1 [Example 29]
*A* 1210

*Q* Please indicate IC50 recorded for CS(=O)(=O)Nc1cccc(-c2nc3c(N4CCOCC4)nc(N4CCOCC4)nc3[nH]2)c1 [Example 33]
*A* 380

*Q* Please indicate IC50 recorded for c1cc2ccc(-c3nc4c(N5C6CCC5COC6)nc(N5CCOCC5)nc4[nH]3)cc2[nH]1 [Example 53]
*A* 190

*Q* Please indicate IC50 recorded for C[C@@H]1COCCN1c1nc(N2CCOC[C@@H]2C)nc2[nH]c(-c3cccc4[nH]ccc34)nc12 [Example 43]
*A* 40

*Q* Please indicate IC50 recorded for C[C@H]1COCCN1c1nc(N2CCC(F)(F)CC2)nc2[nH]c(-c3cccc4[nH]ccc34)nc12 [Example 5]
*A* 150

*Q* Please indicate IC50 recorded for NCc1cccc(-c2nc3c(N4CCOCC4)nc(N4CCOCC4)nc3[nH]2)c1 [Example 11]
*A* 2420

*Q* Please indicate IC50 recorded for c1cc(-c2nc3c(N4C5CCC4COC5)nc(N4CCOCC4)nc3[nH]2)c2cc[nH]c2c1 [Example 54]
*A* 150

====

Biological target: FRAP1/mTOR (Homo sapiens (Human), UniProt P42345)
Sequence (P42345 1360-2549): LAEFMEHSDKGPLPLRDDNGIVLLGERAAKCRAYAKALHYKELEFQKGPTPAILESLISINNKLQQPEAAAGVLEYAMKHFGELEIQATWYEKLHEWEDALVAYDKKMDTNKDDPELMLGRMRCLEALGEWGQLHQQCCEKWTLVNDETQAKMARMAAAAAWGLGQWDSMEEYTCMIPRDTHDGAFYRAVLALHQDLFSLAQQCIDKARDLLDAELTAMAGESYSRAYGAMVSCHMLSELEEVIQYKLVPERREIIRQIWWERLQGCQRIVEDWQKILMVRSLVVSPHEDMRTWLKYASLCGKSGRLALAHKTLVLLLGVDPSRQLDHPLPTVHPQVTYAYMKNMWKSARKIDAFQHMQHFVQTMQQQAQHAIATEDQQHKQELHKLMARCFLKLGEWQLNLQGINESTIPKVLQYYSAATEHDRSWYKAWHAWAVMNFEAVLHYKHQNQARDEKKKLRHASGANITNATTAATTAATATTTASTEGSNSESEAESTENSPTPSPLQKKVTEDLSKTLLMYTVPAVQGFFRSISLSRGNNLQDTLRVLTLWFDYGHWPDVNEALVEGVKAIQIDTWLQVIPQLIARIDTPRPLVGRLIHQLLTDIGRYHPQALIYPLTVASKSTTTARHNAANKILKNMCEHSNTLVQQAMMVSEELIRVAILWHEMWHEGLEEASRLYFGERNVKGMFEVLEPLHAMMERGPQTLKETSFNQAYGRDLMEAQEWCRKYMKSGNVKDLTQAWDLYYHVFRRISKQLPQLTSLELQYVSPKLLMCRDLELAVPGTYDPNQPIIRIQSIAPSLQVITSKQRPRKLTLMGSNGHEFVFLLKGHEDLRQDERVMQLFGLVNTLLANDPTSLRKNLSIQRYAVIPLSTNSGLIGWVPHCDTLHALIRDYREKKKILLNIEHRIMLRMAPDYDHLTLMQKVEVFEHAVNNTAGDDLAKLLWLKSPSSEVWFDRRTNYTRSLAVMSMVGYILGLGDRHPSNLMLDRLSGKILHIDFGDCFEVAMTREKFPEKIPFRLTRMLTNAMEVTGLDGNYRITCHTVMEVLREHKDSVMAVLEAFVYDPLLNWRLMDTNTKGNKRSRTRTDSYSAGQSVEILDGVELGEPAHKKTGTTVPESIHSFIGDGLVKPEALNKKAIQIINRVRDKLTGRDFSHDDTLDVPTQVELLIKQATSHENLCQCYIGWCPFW
Assay: Test 2: mTOR Biochemical Assay (FRAP1/mTOR TR-FRET tracer assay)
Conditions: mTOR Kinase Tracer 314
measurementLabel: pIC50
API: returns pIC50 as number; meaning -log10 of concentration in mol/L.

*Q* Please indicate pIC50 recorded for C[C@@H]1COCCN1c1nc(N2CCOC[C@@H]2C)nc2[nH]c(-c3ccc4cc[nH]c4c3)nc12
*A* 6.85

*Q* Please indicate pIC50 recorded for C[C@@H]1CN(c2nc(N3CCOCC3)c3nc(-c4cccc(N)c4)[nH]c3n2)C[C@H](C)O1
*A* 5.98

*Q* Please indicate pIC50 recorded for C[C@@H]1COCCN1c1nc(N2CCOC[C@H]2C)c2nc(-c3cccc4[nH]ccc34)[nH]c2n1
*A* 8.05

*Q* Please indicate pIC50 recorded for C[C@@H]1COCCN1c1nc(N2CC3CCC(C2)O3)nc2[nH]c(-c3cccc4[nH]ccc34)nc12
*A* 7.52

*Q* Please indicate pIC50 recorded for C[C@@H]1COCCN1c1nc(N2CCOC[C@H]2C)c2nc(-c3cccc4c3CCN4)[nH]c2n1
*A* 7.40

*Q* Please indicate pIC50 recorded for C[C@H]1COCCN1c1nc(N2CCOC[C@@H]2C)c2nc(-c3ccc4cc[nH]c4c3)[nH]c2n1
*A* 8.15

*Q* Please indicate pIC50 recorded for C[C@@H]1COCCN1c1nc(N2CCOCC2)c2nc(-c3cccc4[nH]ccc34)[nH]c2n1
*A* 7.22

====

Tested on: H4 mCherry-GFP-LC3 cells
Assay: Test 4: Autophagy Assay (mCherry-GFP-LC3 reporter, high-content imaging)
Assay type: cell-based
Conditions: Homo sapiens, Table 4 (unit inferred), mCherry-positive LC3 puncta/cell, 16-18 h
Classification by EC50 | ranges: lo: < 500 nM; mid: ≥ 500 nM and < 3000 nM; hi: ≥ 3000 nM

*Q* Which bin, given its EC50, does c1cc(-c2nc3c(N4C[C@@H]5C[C@H]4CO5)nc(N4CCOCC4)nc3[nH]2)c2cc[nH]c2c1 occupy?
*A* hi

*Q* Which bin, given its EC50, does C[C@@H]1COCCN1c1nc(N2CCOC[C@@H]2C)nc2[nH]c(-c3cccc4[nH]ccc34)cc12 occupy?
*A* mid

*Q* Which bin, given its EC50, does C[C@@H]1COCCN1c1nc(N2CCOC[C@@H]2C)nc2[nH]c(-c3cccc4c3CCN4)nc12 occupy?
*A* mid

*Q* Which bin, given its EC50, does CC1(C)COCCN1c1nc(N2CCOCC2)nc2[nH]c(-c3cccc4[nH]ccc34)nc12 occupy?
*A* hi

*Q* Which bin, given its EC50, does CC1(C)COCCN1c1nc(N2CCOCC2)nc2[nH]c(-c3ccc4cc[nH]c4c3)nc12 occupy?
*A* mid

*Q* Which bin, given its EC50, does C[C@@H]1COCCN1c1nc(N2CCOCC2)c2nc(-c3cccc4[nH]ccc34)[nH]c2n1 occupy?
*A* lo

*Q* Which bin, given its EC50, does C[C@H]1COCCN1c1nc(N2CC3CCC(C2)O3)nc2[nH]c(-c3cccc4[nH]ccc34)nc12 occupy?
*A* lo

*Q* Which bin, given its EC50, does C[C@@H]1COCCN1c1nc(N2CCOC[C@@H]2C)nc2[nH]c(-c3cccc4[nH]ccc34)nc12 occupy?
*A* lo

*Q* Which bin, given its EC50, does C[C@@H]1COCCN1c1nc(N2CCOC[C@@H]2C)nc2[nH]c(-c3ccc4cc[nH]c4c3)nc12 occupy?
*A* lo

*Q* Which bin, given its EC50, does c1cc(-c2cc3c(N4CCOCC4)nc(N4CCOCC4)nc3[nH]2)c2cc[nH]c2c1 occupy?
*A* hi

*Q* Which bin, given its EC50, does C[C@@H]1COCCN1c1nc(N2CC3CCC(C2)O3)nc2[nH]c(-c3cccc4[nH]ccc34)nc12 occupy?
*A* lo

*Q* Which bin, given its EC50, does C[C@@H]1COCCN1c1nc(N2CCOC[C@H]2C)c2nc(-c3cccc4c3CCN4)[nH]c2n1 occupy?
*A* hi

*Q* Which bin, given its EC50, does c1cc2ccc(-c3nc4c(N5C[C@@H]6C[C@H]5CO6)nc(N5CCOCC5)nc4[nH]3)cc2[nH]1 occupy?
*A* hi

*Q* Which bin, given its EC50, does c1cc(-c2nc3c(N4C5CCC4COC5)nc(N4CCOCC4)nc3[nH]2)c2cc[nH]c2c1 occupy?
*A* mid

*Q* Which bin, given its EC50, does c1cc2ccc(-c3nc4c(N5C6CCC5COC6)nc(N5CCOCC5)nc4[nH]3)cc2[nH]1 occupy?
*A* mid
